# System: SK-MEL-5 melanoma
# assay.text: NCI tumour cell line growth inhibition, 48 h; in the data active means GI50 below about 0.43 µM; inactive means the rest
The reply should name one outcome from active, inactive

Input line: Short answer needed: outcome of this test for COc1cc(-c2c(C#N)c(N)nc(N3CCOCC3)c2C#N)cc(OC)c1OC ?
Output line: inactive

Others:
Input line: Short answer needed: outcome of this test for COc1ccc2nc3cc(Cl)ccc3c(Sc3ccc([N+](=O)[O-])cc3)c2c1 ?
Output line: inactive

Input line: Short answer needed: outcome of this test for CN1CCN(Cc2ccc(NC(=O)c3cccc(C#Cc4cnc(N)c5ncccc45)c3F)cc2C(F)(F)F)CC1 ?
Output line: inactive

Input line: Short answer needed: outcome of this test for Cn1c(NCC(O)CN2CCCC2)cc(=O)n(C)c1=O (stereo not given) ?
Output line: inactive

Input line: Short answer needed: outcome of this test for O=c1oc2ccc(Br)cc2c(=O)n1-c1ccc(I)cc1F ?
Output line: active

====

# System: HOP-62 NSCLC
# assay.text: NCI tumour cell line growth inhibition, 48 h
// values below are reported TGI

In the examples that follow, each entry is paired with its recorded TGI.
Please fill in: TGI reported for c1ccc2c(c1)CCc1[nH]c3c(c1-2)-c1ccccc1CC3 = 58.5 µM

Please fill in: TGI reported for Ic1cc2c(cc1C1SCCCS1)OCO2 = > 100 µM

Please fill in: TGI reported for O=S(=O)(/N=c1/scc(-c2ccccc2)n1-c1ccccc1)c1ccc(N2N=C3c4ccccc4CC3C2c2cccs2)cc1 (stereo unspecified) = > 100 µM

Please fill in: TGI reported for O=c1c2cc(Cl)cc(Cl)c2oc2nc3n(c(=O)c12)CCCS3 = > 100 µM

Please fill in: TGI reported for NCOC(=O)Cc1ccc(Br)cc1 = > 100 µM

Others:
Please fill in: TGI reported for NCCNCc1c2ccccc2c(CNCCN)c2ccccc12 = 69.3 µM

====

// values below are reported GI50
# Tested on: HT29 colon
# assay.text: NCI tumour cell line growth inhibition, 48 h

Please fill in: GI50 reported for COc1ccc(-n2ccnc2-c2cc(OC)c(OC)c(OC)c2)cc1 = 1.86 µM

Please fill in: GI50 reported for CC(=O)N1N=C2/C(=C/c3ccc(Cl)cc3)CC(C)CC2C1c1ccc(Cl)cc1 (stereo not given) = 21.7 µM

Please fill in: GI50 reported for CCOc1cccc(-c2nc(N)nc(Nc3ccccc3SSc3ccccc3Nc3nc(N)nc(-c4cccc(OCC)c4)n3)n2)c1 = 55.8 µM

Others:
Please fill in: GI50 reported for CC(=O)Oc1ccc(/C(=C(\C)c2ccc(Cl)cc2)c2ccc(OCCN3CCCCC3)cc2)cc1 = 1.19 µM

Please fill in: GI50 reported for NCC1OC(OC2C(CO)OC(OC3C(O)C(N)CC(N)C3OC3OC(CO)C(O)CC3N)C2O)C(N)C(O)C1OC1OC(CO)C(O)C(O)C1O (stereo not given) = > 50 µg/mL

====

# System: NCI-H226 lung
# assay.text: NCI tumour cell line growth inhibition, 48 h; in the data active = GI50 below about 0.43 µM; inactive = the rest
The reply should name one outcome from T for active, F for inactive

Worked examples follow.
Input line: Short answer needed: outcome of this test for N#C[Se]CCCNS(=O)(=O)C1CC2C=CC1C2 (configuration not stated) ?
Output line: T

Input line: Short answer needed: outcome of this test for c1ccc2cc(C[n+]3ccn(CCCCCCCCCCn4cc[n+](Cc5ccc6ccccc6c5)c4)c3)ccc2c1 ?
Output line: F

Input line: Short answer needed: outcome of this test for OCc1ccc(N2CCc3ccccc3C2)cc1Cl ?
Output line: T

Input line: Short answer needed: outcome of this test for C[C@@H](Oc1ccc(C(=O)NS(=O)(=O)C(C)(C)C)cc1C(F)(F)F)c1ccc(Oc2ccccc2)cn1 ?
Output line: F

Input line: Short answer needed: outcome of this test for O=C1c2ccccc2-c2c1c1ccccc1c(=O)n2CCCNCCCCNCCCN1C(=O)c2ccccc2C2C(=O)c3ccccc3C21 (configuration not stated) ?
Output line: F

Input line: Short answer needed: outcome of this test for Clc1ccc(-c2cc(-c3ccccc3)nc(NCCNc3ccnc4cc(Cl)ccc34)n2)cc1 ?
Output line: F

Then there is this molecule:
Input line: Short answer needed: outcome of this test for Cn1cc(C2=C(c3cn(C)c4ccccc34)C(=O)NC2=O)c2ccccc21 ?
Output line: F

====

# Tested on: COLO 205 colon
# assay.text: NCI tumour cell line growth inhibition, 48 h
// values below are reported TGI
Report the figure in µM without appending any unit label.

In the examples that follow, each entry is paired with its recorded TGI.
Result for COc1cccc(NC(=O)C(=O)C(C(=O)c2ccccc2F)C2OC(=O)c3ccccc32)c1 (centres undefined) , tested on COLO 205 colon, TGI: 39.5

Result for C=C(CN1CC2C[C@](C(=O)OC)(c3cc4ccccc4[nH]3)C1C(OC)C2OC)S(=O)(=O)c1ccccc1 (some centres undefined) , tested on COLO 205 colon, TGI: 6.14

Result for Clc1cc(Cl)cc(N2N=C(c3cccc(Nc4ccncc4)c3)CC2c2ccc3c(c2)OCO3)c1 (centres undefined) , tested on COLO 205 colon, TGI: 3.88

Here is the next item to consider.
Result for NC(N)=N/N=C/c1ccc(-c2ccc(-c3cc(Cl)cc(Cl)c3)s2)cc1 , tested on COLO 205 colon, TGI: 3.88

====

# Tested on: HS 578T breast
# assay.text: NCI tumour cell line growth inhibition, 48 h
measured.parameter: TGI

In the examples that follow, each entry is paired with its recorded TGI.
Please fill in: TGI reported for FC(F)(Sc1ncc[nH]1)c1nc2ccccc2o1 = > 100 µM

Please fill in: TGI reported for CC1C(OC2O[C@@H]3O[C@@]4(C)CC[C@H]5[C@H](C)CC[C@@H](C2C)[C@@]35O4)O[C@@H]2O[C@@]3(C)CC[C@H]4[C@H](C)CC[C@@H]1[C@@]24O3 (some centres undefined) = > 50 µM

Please fill in: TGI reported for NCOC(=O)Cc1ccc(Br)cc1 = > 100 µM

Please fill in: TGI reported for O=C(c1ccco1)c1c(C(F)(F)F)n([O-])c2ccc(Cl)cc2[n+]1=O = 4.37 µM

Please fill in: TGI reported for COc1ccc(C(=O)/C=C/c2ccc(OCCSCCCCCCCCCCSCCOc3ccc(/C=C/C(=O)c4ccc(OC)c(OC)c4)cc3)cc2)cc1OC = > 100 µM

Others:
Please fill in: TGI reported for CN1CCC2(CC1)C(=NC1CCCCC1)NC(=S)N2c1ccccc1 = 88.3 µM

Please fill in: TGI reported for CC(=O)OC12COC1CC(O)C1(C)C(=O)C(O)C3=C(C)C(O)CC(O)(C(OC(=O)c4ccccc4)C21)C3(C)C (centres undefined) = 6.15 µM

Please fill in: TGI reported for O=c1cn[nH]c(=S)n1/N=C/c1c[nH]c2ccccc12 = > 100 µM

Please fill in: TGI reported for Cc1c(O)c2c(c(O)c1Br)C(=O)C=CC2=O = 6.34 µM

====

// values below are reported TGI
# Test system: A498 renal
# assay.text: NCI tumour cell line growth inhibition, 48 h

In the examples that follow, each entry is paired with its recorded TGI.
Please fill in: TGI reported for COC(=O)C1=C(C)C=C(N2CCOCC2)C(C(=O)OC)C1c1ccccc1 (stereo unspecified) = > 10 µM

Please fill in: TGI reported for C=CCOC(=O)C1=C(CCC[C@@H](C)O[Si](C)(C)C(C)(C)C)N=C(N)N2[C@H](CCO)CC[C@@H]12 = 35.7 µM

Please fill in: TGI reported for COC(=O)/C=C/C1(O)C=CC(=O)C=C1 = > 60.2 µM

Please fill in: TGI reported for COC1(O)c2cccc(Cl)c2C(=O)N1C1(C(N)=O)CCCCC1 (stereo unspecified) = > 100 µM

Please fill in: TGI reported for Cn1c(/C=C/[N+](=O)[O-])cc2ccccc21 = 9.27 µM

Others:
Please fill in: TGI reported for COc1cc2c(cc1OC)C1Cc3cc(OC)c(OC)cc3C(C2)N1C = > 100 µM

====

# System: K-562 leukemia
# assay.text: NCI tumour cell line growth inhibition, 48 h; in the data active means GI50 below about 0.43 µM; inactive means the rest
The reply should name one outcome from 1 for active, 0 for inactive

Worked examples follow.
Input line: Short answer needed: outcome of this test for C[C@@H](Oc1ccc(C(=O)NS(=O)(=O)C(C)(C)C)cc1C(F)(F)F)c1ccc(Oc2ccccc2)cn1 ?
Output line: 0

Input line: Short answer needed: outcome of this test for Cn1c(=O)c(Oc2ccc(F)cc2F)cc2cnc(NC3CCS(=O)(=O)CC3)nc21 ?
Output line: 0

Others:
Input line: Short answer needed: outcome of this test for Clc1ccc(-c2cc(-c3ccccc3)nc(NCCNc3ccnc4cc(Cl)ccc34)n2)cc1 ?
Output line: 0

Input line: Short answer needed: outcome of this test for CC(=O)[CH-]C(=O)c1ccccc1.CC(=O)[CH-]C(=O)c1ccccc1.C[C@]12CCC(=O)C=C1CC[C@@H]1C2CC[C@@]2(C)C1CC[C@@H]2[O-].C[C@]12CCC(=O)C=C1CC[C@@H]1C2CC[C@@]2(C)C1CC[C@@H]2[O-].Cl.[Ti+4] (stereo not given in full) ?
Output line: 0
